# targetOrTestSystem: human PD-L1 (Homo sapiens)
# Construct: purchased Sino Biologicals or R&D systems
# Sequence (Q9NZQ7 19-290): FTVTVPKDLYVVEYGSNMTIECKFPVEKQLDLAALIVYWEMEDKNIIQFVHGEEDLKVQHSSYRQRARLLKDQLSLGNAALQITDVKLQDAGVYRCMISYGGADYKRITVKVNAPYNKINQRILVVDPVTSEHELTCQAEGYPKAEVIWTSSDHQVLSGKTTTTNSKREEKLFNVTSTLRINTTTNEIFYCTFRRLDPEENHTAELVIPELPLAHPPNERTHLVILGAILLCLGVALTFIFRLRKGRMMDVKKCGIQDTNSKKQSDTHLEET
# assayExplanation: PD-L1 SPR Binding Assay (Biacore), human
# protocolConditions: 25° C.
Where no end group is shown, it is not given here. [ ]: non-standard residue; d: D form. hArg = N=C(N)NCCCC[C@H](N)C(=O)O; Aad = N[C@@H](CCCC(=O)O)C(=O)O; Nva = CCC[C@H](N)C(=O)O
metricName: Kd
Param answer (str): number followed by unit.

Below, 5 substances whose answers are already recorded.
| substance | metricName | reportedMeasurement |
| --- | --- | --- |
| Ac-SEKCS[Aad]GWLTMCLKLHLC (cysteine pairing not given here) [BCY11825] | Kd | 28.8 nM |
| SDKCSAGWLTMCQK[Nle]HLCA [BCY10071] | Kd | 58.2 nM |
| SDKCSAGWLT[Nle]CQKLHLCA [BCY10058] | Kd | 59.7 nM |
| Ac-[hArg]CS[Aad]GWLTMCLKLHLC (cysteine pairing not given here) [BCY11827] | Kd | 30 nM |
| SDKCSAGWLTMCQK[Nva]HLCA (cysteine pairing not given here) [BCY10084] | Kd | 43.2 nM |

// field: Kd; key: Ac-DKCS[Aad]GWLTMCQKLHLCPSH-COOH [BCY11853] ; value = 17.6 nM

Documented Kd of SDKCS[Nle]GWLTMCQKLHLCA [BCY10062] : 23 nM

Consider SDKCSAGWLTMC[Chg]KLHLCA [BCY10066] . Its measured Kd is 14.4 nM

----------
# targetOrTestSystem: human PD-L1 (Homo sapiens)
# Construct: purchased Sino Biologicals or R&D systems
# assayExplanation: PD-L1 SPR Binding Assay (Biacore), human
# protocolConditions: 25° C.
Where no end group is shown, it is not given here. [ ]: non-standard residue; d: D form. Aad = N[C@@H](CCCC(=O)O)C(=O)O
Grouping key: Kd. Bins: LOW = under 0.02 µM, MEDIUM = from 0.02 µM up to 0.04 µM, HIGH = 0.04 µM and over

Answered cases to consult:
| substance | class |
| --- | --- |
| SDKCS[Aib]GWLTMCQKLHLCA [BCY10054] | MEDIUM |
| Ac-SEKCS[Aad]GWLTMCLKLHLCPSH (cysteine pairing not given here) [BCY11831] | LOW |
| SDKCSAGWLTMCQ[Nle]LHLCA [BCY10068] | HIGH |
| SDKCSAGWLTMCQKLH[Nle]CA [BCY10074] | MEDIUM |
| Ac-KCS[Aad]GWLTMCLKLHLC (cysteine pairing not given here) [BCY11824] | HIGH |
| Ac-EKCS[Aad]GWLTMCLKLHLC (cysteine pairing not given here) [BCY11826] | LOW |
| SD[HArg]CSAGWLTMCQKLHLCA [BCY10052] | MEDIUM |
| SDKCS[Abu]GWLTMCQKLHLCA [BCY10055] | MEDIUM |

Please indicate the class for Ac-SDKCS[Aad]GWLTMCLKLHLCA [BCY11828] based on its Kd. LOW

Exam item: assign SDKCSAGWLTMCQKL[Aib]LCA [BCY10073] to the correct category. LOW

For the record SDKCSAGWLTMCQKLH[Nva]CA [BCY10083] , report the class its Kd corresponds to. HIGH
